# targetOrTestSystem: recombinant human Meningioma Expressed Antigen 5 (MGEA5), also referred to as O-GlcNAcase (OGA) (Homo sapiens, UniProt O60502)
# Construct: Full length OGA enzyme was purchased at OriGene (cat #TP322411); purchased OriGene TP322411
# Sequence (O60502 whole entry): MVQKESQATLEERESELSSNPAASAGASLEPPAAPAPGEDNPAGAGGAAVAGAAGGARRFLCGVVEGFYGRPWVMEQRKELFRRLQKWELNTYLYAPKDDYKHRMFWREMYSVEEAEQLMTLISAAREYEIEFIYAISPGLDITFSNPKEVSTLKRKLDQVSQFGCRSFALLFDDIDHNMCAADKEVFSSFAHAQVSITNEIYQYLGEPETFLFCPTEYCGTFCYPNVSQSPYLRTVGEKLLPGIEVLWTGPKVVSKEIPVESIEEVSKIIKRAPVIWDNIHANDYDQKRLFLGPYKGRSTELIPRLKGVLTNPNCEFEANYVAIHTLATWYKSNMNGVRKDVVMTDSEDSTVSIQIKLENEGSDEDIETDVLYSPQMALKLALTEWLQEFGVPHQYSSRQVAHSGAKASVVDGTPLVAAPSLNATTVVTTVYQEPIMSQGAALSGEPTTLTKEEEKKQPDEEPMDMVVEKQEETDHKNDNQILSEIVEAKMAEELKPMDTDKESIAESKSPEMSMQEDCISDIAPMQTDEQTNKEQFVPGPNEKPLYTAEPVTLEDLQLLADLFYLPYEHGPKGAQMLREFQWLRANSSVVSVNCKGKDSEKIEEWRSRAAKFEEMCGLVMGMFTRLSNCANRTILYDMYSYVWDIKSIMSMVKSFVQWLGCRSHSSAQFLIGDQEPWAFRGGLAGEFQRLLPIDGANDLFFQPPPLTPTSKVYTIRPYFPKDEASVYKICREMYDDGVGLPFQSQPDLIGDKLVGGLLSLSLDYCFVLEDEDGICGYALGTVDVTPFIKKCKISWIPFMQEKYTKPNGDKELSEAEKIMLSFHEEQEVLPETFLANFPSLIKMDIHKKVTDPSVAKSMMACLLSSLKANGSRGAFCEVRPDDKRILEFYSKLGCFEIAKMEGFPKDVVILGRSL
# experimentSummary: OGA biochemical assay (inhibition of FM-GlcNAc hydrolysis, fluorescence)
# conditionLabel: FM-GlcNAc substrate, 6 h at room temperature, read-out: Enzymatic hOGA, pIC50 (converted)
measure: IC50 (nM)
Expressed in nM, but write only the number.

Would you please look over these solved cases?
COc1cc(OC[C@H]2CCCN(C(C)c3ccc4sc(C)nc4n3)C2)cc(C)n1 (mixture of isomers) [Compound 54] = 10
Cc1cc(C[C@@H]2CCN([C@H](C)c3cc4nc(C)oc4cc3F)C2)cc(C)n1 (relative stereo) [Compound 33a] = 2.51
COc1cc(OC2CCCN(C(C)c3ccc4sc(C)nc4n3)C2)cc(C)n1 (stereo not shown) [Compound 41] = 126
Cc1cc(C)nc(CO[C@@H]2CCN(C(C)c3ccc4sc(C)nc4n3)C2)c1 (stereo partly shown) [Compound 80] = 2000

Ask: I am curious: what IC50 value has been reported for Cc1cc(C[C@H]2CCN(C(C)c3ccc4oc(C)nc4n3)C2)cc(C(F)(F)F)n1 (mixture of isomers) [Compound 29] ?
Reply: 126

Ask: I am curious: what IC50 value has been reported for Cc1cc(OC[C@H]2CCCN([C@H](C)c3ccc4sc(C)nc4n3)C2)nc(C)n1 [Compound 49b] ?
Reply: 6.31

Ask: I am curious: what IC50 value has been reported for Cc1cc(OC[C@H]2CCCN([C@@H](C)c3ccc4sc(C)nc4n3)C2)cc(C)n1 [Compound 46a] ?
Reply: 631

Ask: I am curious: what IC50 value has been reported for Cc1cc(C[C@H]2CCCN(Cc3ccc4nc(C)sc4c3)C2)cc(C)n1 [Compound 53] ?
Reply: 3980

Ask: I am curious: what IC50 value has been reported for Cc1cc(C[C@@H]2CCN(C(C)c3cc4nc(C)oc4cc3F)C2)cc(C)n1 (mixture of isomers) [Compound 33ab] ?
Reply: 20

Ask: I am curious: what IC50 value has been reported for Cc1cc([C@H]2CCCN([C@@H](C)c3ccc4sc(C)nc4n3)C2)cc(C)n1 (racemic) [Compound 76] ?
Reply: 5.01

Ask: I am curious: what IC50 value has been reported for Cc1cc(C[C@@H]2CCN(C(C)c3nc4nc(C)sc4cc3F)C2)cc(C)n1 (single isomer, unassigned) [Compound 93] ?
Reply: 3.16

Ask: I am curious: what IC50 value has been reported for COc1cc(NC[C@H]2CCCN(C(C)c3ccc4sc(C)nc4n3)C2)cc(C)n1 (stereo partly shown) [Compound 109] ?
Reply: 6.31

Ask: I am curious: what IC50 value has been reported for Cc1cc(C[C@@H]2CCN(C(C)c3nc4nc(C)sc4cc3F)C2)cc(C)n1 (mixture of isomers) [Compound 50] ?
Reply: 20

Ask: I am curious: what IC50 value has been reported for Cc1cc(C[C@H]2CCCN(Cc3cnc4nc(C)oc4c3)C2)cc(C)n1 [Compound 37] ?
Reply: 7940

Ask: I am curious: what IC50 value has been reported for Cc1cc(OC2CCCN(C(C)c3ccc4sc(C)nc4n3)C2)cc(C)n1 (stereo not shown) [Compound 40] ?
Reply: 12.6
